Reference source: patent US20260184708A1

- systemName: TRPC5 (Homo sapiens, UniProt Q9UL62)
- Construct: expressed in transfected cells; host or cells: HEK 293
- assay: TRPC5 automated patch clamp assay (Qpatch), current block after rosiglitazone stimulation
- Format: cell-based
- conditionContext: Table 3; HEK293 cells overexpressing TRPC5; rosiglitazone stimulation; 100 mV; read-out: TRPC5_QP_ XC50_100
pIC50: −log10 of the molar value.
Listed compounds paired with reported pIC50

Sample answers from the record:
1. Cc1ccccc1CN1CC2CC1CN2c1cn[nH]c(=O)c1Br (centres unmarked)    3.30 to 5.00
2. O=c1[nH]ncc(N2CCN(Cc3ccc(C(F)(F)F)cc3)CC2)c1Cl    3.30 to 5.00
3. Cc1ccccc1CN1CCN(c2cn[nH]c(=O)c2-c2ccccn2)CC1=O    3.30 to 5.00
4. Cc1ccccc1CN1CCN(c2cn[nH]c(=O)c2C(F)(F)F)CC1=O    5.00 to 5.30
5. O=c1[nH]ncc(N2CCN(Cc3ccc(F)cc3Cl)CC2)c1Cl    5.00 to 5.30

Quick one: pIC50 for "O=c1[nH]ncc(N2CCN(Cc3c(F)cccc3F)CC2)c1Cl" ?
5.30 to 6.00

Quick one: pIC50 for "Cc1ccccc1CN1CCN(c2cn[nH]c(=O)c2C#CC2CC2)CC1=O" ?
3.30 to 5.00

Quick one: pIC50 for "O=c1[nH]ncc(N2CC3(CN(Cc4ccccc4)C3)C2)c1Br" ?
3.30 to 5.00

Quick one: pIC50 for "Cc1ccccc1CN1CCN(c2cn[nH]c(=O)c2-c2ccccc2)CC1=O" ?
3.30 to 5.00

Quick one: pIC50 for CN(C)C(=O)CN1CCN(c2cn[nH]c(=O)c2Cl)CC1 [drawing 673] ?
3.30 to 5.00

Quick one: pIC50 for O=c1[nH]ncc(N2CCN(Cc3ccccc3Cl)CC2)c1Cl [drawing 676] ?
5.30 to 6.00

###

- systemName: TRPC5 (Homo sapiens)
- Construct: expressed in transfected cells; host or cells: HEK 293
- assay: TRPC5 fluorescence assay, membrane potential dye, flexstation (FLEX)
- Format: cell-based
- conditionContext: Table 6; HEK293 cells overexpressing TRPC5
reportedMetric: IC50

Sample answers from the record:
1) O=c1[nH]ncc(N2CCc3ncn(Cc4ccc(C(F)(F)F)cc4)c3C2)c1Cl    1000 to 5000 nM
2) CCc1cccnc1Cn1cnc2c1CCN(c1cn[nH]c(=O)c1Cl)C2    0.01 to 1000 nM
3) N#Cc1c(N2CCc3ncn(Cc4cncc(F)c4)c3C2)cn[nH]c1=O    1000 to 5000 nM
4) O=c1[nH]ncc(N2CCc3c(ncn3Cc3ccccc3C(F)(F)F)C2)c1Br [drawing 862]    0.01 to 1000 nM
5) O=c1[nH]ncc(N2CCc3nn(-c4ccccc4OC(F)(F)F)cc3C2)c1Cl    1000 to 5000 nM

Quick one: IC50 for "C[C@H](c1ccccc1C(F)(F)F)n1nnc2c1CCN(c1cn[nH]c(=O)c1Cl)C2" ?
0.01 to 1000 nM

Quick one: IC50 for N#Cc1ccccc1-n1cnc2c1CN(c1cn[nH]c(=O)c1C#N)CC2 [drawing 898] ?
1000 to 5000 nM

###

Listed molecules paired with reported pIC50
- systemName: TRPC5 (Homo sapiens)
- Construct: expressed in transfected cells; host or cells: HEK 293
- Sequence (Q9UL62 1-973): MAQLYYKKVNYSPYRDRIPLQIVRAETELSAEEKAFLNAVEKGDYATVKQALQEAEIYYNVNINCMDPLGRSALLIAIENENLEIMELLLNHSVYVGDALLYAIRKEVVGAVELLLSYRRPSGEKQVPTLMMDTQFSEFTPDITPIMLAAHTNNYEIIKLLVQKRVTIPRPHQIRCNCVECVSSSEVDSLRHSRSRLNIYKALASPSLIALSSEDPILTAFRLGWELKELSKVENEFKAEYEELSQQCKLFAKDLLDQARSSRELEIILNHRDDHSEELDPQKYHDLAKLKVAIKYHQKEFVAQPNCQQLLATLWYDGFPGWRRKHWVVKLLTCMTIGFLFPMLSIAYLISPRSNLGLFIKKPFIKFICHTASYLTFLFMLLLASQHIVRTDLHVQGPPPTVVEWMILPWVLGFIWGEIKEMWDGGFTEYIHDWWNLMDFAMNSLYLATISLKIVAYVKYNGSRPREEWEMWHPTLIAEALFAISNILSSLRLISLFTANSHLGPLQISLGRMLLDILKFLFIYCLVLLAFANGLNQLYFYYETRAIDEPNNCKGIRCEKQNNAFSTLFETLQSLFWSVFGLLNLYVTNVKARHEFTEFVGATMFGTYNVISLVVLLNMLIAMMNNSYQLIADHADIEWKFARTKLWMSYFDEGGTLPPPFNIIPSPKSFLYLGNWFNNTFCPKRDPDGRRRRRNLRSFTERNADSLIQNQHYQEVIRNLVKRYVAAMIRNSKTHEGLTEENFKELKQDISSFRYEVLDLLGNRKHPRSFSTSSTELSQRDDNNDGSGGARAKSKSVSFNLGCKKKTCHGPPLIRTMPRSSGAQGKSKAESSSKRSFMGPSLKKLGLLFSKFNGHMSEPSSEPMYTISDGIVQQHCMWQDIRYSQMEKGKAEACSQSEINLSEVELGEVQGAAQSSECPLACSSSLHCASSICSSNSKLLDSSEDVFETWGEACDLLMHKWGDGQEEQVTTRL
- assay: TRPC5 fluorescence assay, membrane potential dye, flexstation (FLEX)
- Assay type: cell-based
- conditionContext: Table 6; HEK293 cells overexpressing TRPC5
pIC50: −log10 of the molar value.

Sample answers from the record:
1. O=c1[nH]ncc(N2CCc3c(cnn3Cc3ccc(F)cc3C(F)(F)F)C2)c1Cl [drawing 907]    6.00 to 11.00
2. Cc1ccccc1-n1ncc2c1CCN(c1cn[nH]c(=O)c1Cl)C2    6.00 to 11.00
3. C[C@H](c1ccccc1C(F)(F)F)n1nnc2c1CCN(c1cn[nH]c(=O)c1C#N)C2    6.00 to 11.00

Record "O=c1[nH]ncc(N2CCc3c(nnn3Cc3ccccc3OC(F)F)C2)c1Cl" : what is its pIC50 with TRPC5 (Homo sapiens)?
6.00 to 11.00

Record "N#Cc1c(N2CCc3c(nnn3Cc3ccc(F)cc3C(F)(F)F)C2)cn[nH]c1=O" : what is its pIC50 with TRPC5 (Homo sapiens)?
3.30 to 5.00

###

- systemName: TRPC5 (Homo sapiens, UniProt Q9UL62)
- Construct: expressed in transfected cells; host or cells: HEK 293
- assay: TRPC5 automated patch clamp assay (Qpatch), current block after rosiglitazone stimulation
- Assay type: cell-based
- conditionContext: Table 4; HEK293 cells overexpressing TRPC5; rosiglitazone stimulation; 100 mV; read-out: TRPC5_QP_ XC50_100
Listed compounds paired with reported IC50

Sample answers from the record:
1) CN(C)C(=O)CN1CCN(c2cn[nH]c(=O)c2Cl)CC1 [drawing 708]    10 to 500 µM
2) O=C1CN(c2cn[nH]c(=O)c2Cl)CCN1Cc1ccc(-c2ccccc2)cc1    10 to 500 µM
3) Cc1ccccc1CN1CCN(c2cn[nH]c(=O)c2C2CC2)CC1=O    1 to 5 µM
4) Cc1ccccc1CN1CCN(c2cn[nH]c(=O)c2Oc2ccccc2)CC1=O    10 to 500 µM
5) O=C1CN(c2cn[nH]c(=O)c2Cl)CCN1Cc1ccc(Oc2ccccc2)cc1    10 to 500 µM
6) O=C1CN(c2cn[nH]c(=O)c2Cl)CCN1Cc1ccc(F)cc1OC(F)(F)F    1 to 5 µM
7) C[C@@H]1CN(Cc2ccccc2C(F)(F)F)CCN1c1cn[nH]c(=O)c1Cl [drawing 716]    1 to 5 µM
8) O=c1[nH]ncc(N2CCOC(Cc3ccccc3)C2)c1Cl (stereo not shown)    10 to 500 µM

Quick one: IC50 for O=c1[nH]ncc(N2CCN(Cc3ccccc3C(F)(F)F)CC2)c1Cl [drawing 699] ?
1 to 5 µM

Quick one: IC50 for "Cn1ncc2c(CN3CCN(c4cn[nH]c(=O)c4Cl)CC3=O)cccc21" ?
1 to 5 µM

###

- systemName: TRPC5 (Homo sapiens, UniProt Q9UL62)
- Construct: expressed in transfected cells; host or cells: HEK 293
- assay: TRPC5 Fluorescence Assay - FLIPR format (HEK-TREx hTRPC5, Riluzole stimulation)
- Type: cell-based
- conditionContext: Table 7, read-out: TRPC5-FLIPR IC50
reportedMetric: IC50

Sample answers from the record:
1. CCc1ncccc1[C@H](C)n1nnc2c1CCN(c1cn[nH]c(=O)c1Cl)C2 [drawing 928]    0.01 to 1000 nM
2. CN(C)C(=O)c1nn(Cc2ccccc2C(F)F)c2c1CN(c1cn[nH]c(=O)c1Cl)CC2    0.01 to 1000 nM
3. CN(Cc1ccccc1C(F)(F)F)c1ncnc2c1CCN(c1cn[nH]c(=O)c1Cl)C2    5000 to 10000 nM
4. COCc1ncccc1CN1CCN(c2cn[nH]c(=O)c2Cl)CC1 [drawing 926]    0.01 to 1000 nM

Here is another compound to look at.
Quick one: IC50 for O=c1[nH]ncc(N2CCc3c(c(=O)[nH]n3Cc3ccccc3C(F)F)C2)c1Cl [drawing 936] ?
0.01 to 1000 nM
